Form field: inhibition (one value per entry).
- TEST_NAME: inhibitors of HIV fusion peptide binding, primary screen, biochemical, uHTS, fluorescence dequenching (AID 1986)
- CONDITION_DETAILS: cell-free peptide binding, 30 min, at 20 µM, active compounds read high
About 890 (0.31%) of roughly 290,000 compounds were called active. The list comes from a sample in which actives are over-represented; it also holds close analogues and randomly drawn compounds.

Here are 3 molecules together with their reported answers.
[
  {
    "MOLECULE": "COc1cc(-n2nnnc2SC)c(OC)cc1Cl",
    "MEASURED_METRIC": "inhibition",
    "MEASUREMENT": "2.2% (inactive)"
  },
  {
    "MOLECULE": "CCC1(c2ccccc2)NC(=O)N(CC(=O)Nc2ccccc2N2CCCCC2)C1=O (stereo unspecified)",
    "MEASURED_METRIC": "inhibition",
    "MEASUREMENT": "2.6% (inactive)"
  },
  {
    "MOLECULE": "NC(=O)c1c(NC(=O)C2COc3ccccc3O2)sc2c1CCN(Cc1ccccc1)C2 (stereo unspecified)",
    "MEASURED_METRIC": "inhibition",
    "MEASUREMENT": "103% (active)"
  }
]

[Q] Input COc1ccccc1C(=O)C1CCCN(C(=O)c2cnn(C(C)C)c2)C1 (stereo unspecified) , output reported inhibition.
[A] -0.2% (inactive)

[Q] Determine from records and report inhibition for "Cc1ccc(C(=O)Nc2ccc(Oc3ccc(C(=O)O)c(C(=O)O)c3)cc2)cc1C"
[A] 17.4% (inactive)

[Q] Report inhibition for "CN(C)CCCNS(=O)(=O)c1ccc(N2CCC(c3ccc(Cl)cc3)=N2)cc1"
[A] -4.9% (inactive)

[Q] Look up and report measured inhibition for this entry: "CCc1cccc(NC(=O)CN(C)S(=O)(=O)c2cccs2)c1"
[A] 27.6% (inactive)

[Q] Read off the recorded inhibition for "CCOc1ccc(/C=C2/C(=O)N(c3ccc(OC)cc3)C(=S)N2CC(=O)OC)cc1OCC"
[A] 2.5% (inactive)

[Q] Tell me its inhibition given "CC(C)=C1C(=O)NN(c2ccc(C)c(Cl)c2)C1=O" as the entry.
[A] 66.4% (active)

[Q] Supply recorded inhibition for "COc1cccc(-c2c(C(=O)N/N=C(\C)COc3ccccc3)nnn2-c2nonc2N)c1" here.
[A] -1.6% (inactive)
